Origin of values: patent US20030166932A1

# Target of assay: UniProt:P10826
# Sequence (P10826 154-455): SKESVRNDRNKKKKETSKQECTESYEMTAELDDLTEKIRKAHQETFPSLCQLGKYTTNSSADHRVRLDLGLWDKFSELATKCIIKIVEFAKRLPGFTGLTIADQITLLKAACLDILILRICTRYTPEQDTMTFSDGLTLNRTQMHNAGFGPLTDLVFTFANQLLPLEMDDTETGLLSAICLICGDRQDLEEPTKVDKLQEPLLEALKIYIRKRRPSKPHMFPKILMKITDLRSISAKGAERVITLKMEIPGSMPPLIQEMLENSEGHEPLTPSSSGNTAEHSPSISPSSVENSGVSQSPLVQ
# Protocol summary: cell-based
# Assay type: cell-based
# Reported conditions: NA = Not Active; read-out: RAR Trans. EC50 (nM) β
Readout: EC50

C=CCN(c1ccc(C(=O)O)cc1)c1ccc2c(c1)C(C(C)(C)C)=CCC2(C)C; > 1000 nM

Note: attention shifts to another entry.
In: Requested read-out: EC50. Entry: CCCN(c1ccc(C(=O)O)cc1)c1cc2c(cc1OCc1ccccc1)C(C)(C)CC=C2C(C)C
Out: > 1000 nM

----------
# Target of assay: RXRγ (UniProt P28705)
# Protocol summary: holoreceptor transactivation assay
# Assay type: cell-based
# Reported conditions: relative to 10^−6 M AGN 194204
Readout: % efficacy, RXR Trans. Y

In: Dear colleague, I am looking for the recorded % efficacy, RXR Trans. Y of the following molecule: CCCN(c1ccc(C(=O)O)cc1)c1ccc2c(c1)C(C(C)(C)C)=CCC2(C)C [Compound 89]
Out: 105) %

----------
# Target of assay: UniProt P28705
# Protocol summary: ligand binding assay
# Reported conditions: read-out: RXR Bind Ki (nM) Y
Our labelling divides records by Ki into ranges: low bin (below 40 nM), mid bin (40 nM to below 200 nM), high bin (200 nM or more)

CCN(c1ccc(C(=O)O)cc1)c1cc2c(cc1OCc1ccc(C)cc1)C(C)(C)CC=C2C(C)C; high bin

In: Hey, which category is CCCOc1cc2c(cc1N(CC)c1ccc(C(=O)O)cc1)C(C(C)C)=CCC2(C)C in, do you know?
Out: high bin

In: Form: Item = CC1=CCC(C)(C)c2cc(N(C)c3ccc(C(=O)O)cc3)c(C)cc21 ; Class = ?
Out: high bin

In: State the class of the molecule shown: CCN(c1ccc(C(=O)O)cc1)c1cc2c(cc1OCc1ccccc1)C(C)(C)CC=C2C(C)(C)C
Out: mid bin

In: Given CCN(c1ccc2c(c1)C(C(C)C)=CCC2(C)C)c1ccc(C(=O)O)cn1 , name the class its Ki places it in.
Out: low bin

In: Bin? CCN(c1ccc(C(=O)O)cc1)c1cc2c(cc1OC)C(C)(C)CC=C2C(C)C
Out: low bin

----------
Examples of compounds with documented Emax follow.
# Target of assay: RXRα (Homo sapiens, UniProt P19793)
# Sequence (P19793 whole entry): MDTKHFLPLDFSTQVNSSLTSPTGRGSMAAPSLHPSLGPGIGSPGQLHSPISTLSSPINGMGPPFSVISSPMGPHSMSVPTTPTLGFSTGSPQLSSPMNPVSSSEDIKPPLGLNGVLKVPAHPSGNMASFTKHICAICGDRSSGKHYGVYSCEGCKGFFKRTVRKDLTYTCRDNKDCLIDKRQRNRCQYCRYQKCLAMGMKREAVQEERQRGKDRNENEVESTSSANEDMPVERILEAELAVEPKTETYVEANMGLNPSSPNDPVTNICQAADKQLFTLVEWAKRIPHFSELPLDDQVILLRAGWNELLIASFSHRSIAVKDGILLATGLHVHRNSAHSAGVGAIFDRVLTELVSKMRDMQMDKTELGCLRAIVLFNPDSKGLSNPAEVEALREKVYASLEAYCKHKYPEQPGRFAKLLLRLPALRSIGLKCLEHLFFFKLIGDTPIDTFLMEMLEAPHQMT
# Protocol summary: holoreceptor transactivation assay
# Reported conditions: read-out: % efficacy, RXR Trans. α
Form entry: value (%) — number only.

CCN(c1ccc(C(=O)O)cc1)c1cc2c(cc1C)C(C(C)C)=CCC2(C)C; 65

In: Recorded Emax for CCN(c1ccc(C(=O)O)cc1)c1ccc2c(c1)C(C(C)(C)C)=CCC2(C)C with RXRα (Homo sapiens, UniProt P19793), please?
Out: 114

In: Requested read-out Emax, target or system RXRα (Homo sapiens, UniProt P19793), entry CC1=CCC(C)(C)c2cc(N(CC3CC3)c3ccc(C(=O)O)cc3)c(C)cc21
Out: 65

In: For RXRα (Homo sapiens, UniProt P19793), provide Emax of CCN(c1ccc2c(c1)C(C)=CCC2(C)C)c1ccc(C(=O)O)cn1 please.
Out: 113

----------
Reported log10 Ki values follow for various compounds
# Target of assay: RARγ (Homo sapiens)
# Sequence (P13631 whole entry, species assumed): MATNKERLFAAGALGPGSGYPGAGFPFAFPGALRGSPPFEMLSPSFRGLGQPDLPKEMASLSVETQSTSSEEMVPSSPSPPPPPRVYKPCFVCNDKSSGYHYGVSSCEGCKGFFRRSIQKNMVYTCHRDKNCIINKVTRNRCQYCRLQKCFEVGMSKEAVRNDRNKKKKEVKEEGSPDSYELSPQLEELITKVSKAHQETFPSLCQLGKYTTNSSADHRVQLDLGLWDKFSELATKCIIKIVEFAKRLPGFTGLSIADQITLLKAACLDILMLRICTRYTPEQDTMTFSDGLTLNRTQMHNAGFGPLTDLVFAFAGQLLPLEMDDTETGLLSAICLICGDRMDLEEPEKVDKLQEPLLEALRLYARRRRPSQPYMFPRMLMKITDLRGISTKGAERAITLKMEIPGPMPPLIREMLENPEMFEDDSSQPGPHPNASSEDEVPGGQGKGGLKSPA
# Protocol summary: ligand binding assay
# Reported conditions: read-out: RAR Bind. Ki (nM) Y
Record value = log10 of Ki given in nM.

Reference set, count: 5
CCCN(c1ccc(C(=O)O)cc1)c1cc2c(cc1OCc1ccccc1)C(C)(C)CC=C2C; 4.18
CCN(c1ccc(C(=O)O)cc1)c1ccc2c(c1)C(C(C)(C)C)=CCC2(C)C; 3.54
CCN(c1ccc(C(=O)O)cc1)c1cc2c(cc1C)C(C)(C)CC=C2C(C)C; 3.64
CCN(c1ccc(C(=O)O)cc1)c1cc2c(cc1OCc1ccccc1)C(C)(C)CC=C2C(C)C; 3.79
CCCCCCOc1cc2c(cc1N(CC)c1ccc(C(=O)O)cc1)C(C(C)C)=CCC2(C)C; 3.95

Would you kindly look at the next entry?
In: Give the measured log10 Ki of CCN(c1ccc(C(=O)O)cc1)c1cc2c(cc1C)C(C)(C)CC=C2C(C)(C)C .
Out: 3.60
